# System: HepaRG™ cells
# Description: Cryopreserved HepaRG™ (HPRGC10), a terminally differentiated hepatic cell line, was purchased from ThermoFisher Scientific (Waltham, MA). HepaRG™ was thawed and cultured according to manufacturer's instructions. […] The DNA on CometChip was stained for 15 min at room temperature with 1× of SYBR™ Gold diluted in PBS, protected from light. […] For each condition, 100 comets or more were analysed. […] For this experiment, the comets were analysed using Trevigen® Comet Analysis Software. […]
observedProperty: Genotoxicity Alkaline CometChip HepaRG +/−

O=P1(N(CCCl)CCCl)NCCCO1 (stereo not shown) [CP, Cyclophosphamide monohydrate]    −
Oc1ccc(O)cc1 [HQ, Hydroquinone]    −
c1ccc2c(c1)cc1ccc3cccc4ccc2c1c34 [B[a]P, Benzo[a]pyrene]    −
COc1cc([C@@H]2c3cc4c(cc3[C@@H](O[C@@H]3O[C@@H]5CO[C@@H](C)O[C@H]5[C@H](O)[C@H]3O)[C@H]3COC(=O)[C@H]23)OCO4)cc(OC)c1O [Etoposide]    −
